I'd be grateful if you could share measured Mean % WT Binding for these entries.
molecular target: human CD33 V25S (human, UniProt P20138 18-364); assay: flow cytometry, mutant on cells, IgG
Sequence (P20138 18-364 V25S limits assumed): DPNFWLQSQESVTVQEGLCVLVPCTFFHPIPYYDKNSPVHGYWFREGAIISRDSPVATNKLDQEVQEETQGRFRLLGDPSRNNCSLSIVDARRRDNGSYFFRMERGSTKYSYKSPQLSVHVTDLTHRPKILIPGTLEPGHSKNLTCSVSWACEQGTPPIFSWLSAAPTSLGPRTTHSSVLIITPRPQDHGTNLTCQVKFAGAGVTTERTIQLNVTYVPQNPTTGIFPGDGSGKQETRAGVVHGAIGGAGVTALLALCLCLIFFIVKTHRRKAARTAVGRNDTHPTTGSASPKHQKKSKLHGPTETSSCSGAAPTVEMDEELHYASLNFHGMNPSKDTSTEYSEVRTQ
Give your result in % WT binding as a bare value.

Mean % WT Binding measured on Refmab #3 (antibody, human IgG1, V domains shown, Tested in IgG format; human IgG1 Fc silent (PG-LALA)) VH: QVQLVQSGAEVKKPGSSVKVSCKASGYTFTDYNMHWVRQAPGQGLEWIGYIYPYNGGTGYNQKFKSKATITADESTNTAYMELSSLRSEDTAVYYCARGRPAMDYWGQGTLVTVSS VL: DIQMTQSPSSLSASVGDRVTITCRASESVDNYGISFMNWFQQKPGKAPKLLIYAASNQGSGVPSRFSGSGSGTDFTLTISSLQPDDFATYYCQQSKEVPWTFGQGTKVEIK = 104

Mean % WT Binding measured on Refmab #1 (antibody, human IgG1, V domains shown, Tested in IgG format; human IgG1 (Absolute Antibody hP67.6, Cat. No. Ab00283-10.0); also called hP67.6) VH: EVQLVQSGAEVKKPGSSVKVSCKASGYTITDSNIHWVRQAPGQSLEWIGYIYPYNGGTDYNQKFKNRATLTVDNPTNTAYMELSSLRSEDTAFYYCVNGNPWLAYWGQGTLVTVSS VL: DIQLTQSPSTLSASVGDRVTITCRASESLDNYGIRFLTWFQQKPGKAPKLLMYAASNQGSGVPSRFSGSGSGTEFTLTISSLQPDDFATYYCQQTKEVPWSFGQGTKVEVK = 106

Mean % WT Binding measured on Refmab #4 (antibody, human IgG1, V domains shown, Tested in IgG format; human IgG1 Fc silent (PG-LALA)) VH: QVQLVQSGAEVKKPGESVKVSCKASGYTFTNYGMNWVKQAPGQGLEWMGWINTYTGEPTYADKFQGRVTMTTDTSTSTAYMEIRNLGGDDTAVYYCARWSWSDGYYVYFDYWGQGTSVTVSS VL: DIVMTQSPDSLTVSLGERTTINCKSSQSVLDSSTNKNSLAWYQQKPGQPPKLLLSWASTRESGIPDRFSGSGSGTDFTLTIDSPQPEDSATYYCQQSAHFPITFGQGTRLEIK = 106

Mean % WT Binding measured on Refmab #2 (antibody, human IgG1, V domains shown, Tested in IgG format; human IgG1 Fc silent (PG-LALA)) VH: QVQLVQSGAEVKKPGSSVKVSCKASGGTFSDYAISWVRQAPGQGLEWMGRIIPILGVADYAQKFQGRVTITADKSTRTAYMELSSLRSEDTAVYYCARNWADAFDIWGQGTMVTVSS VL: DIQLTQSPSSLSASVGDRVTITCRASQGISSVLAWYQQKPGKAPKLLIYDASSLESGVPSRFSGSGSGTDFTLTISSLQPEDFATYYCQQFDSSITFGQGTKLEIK = 110
